# System Tested: xanthine oxidase (XO) (Bos taurus, UniProt P80457)
# Sequence (P80457 2-1332): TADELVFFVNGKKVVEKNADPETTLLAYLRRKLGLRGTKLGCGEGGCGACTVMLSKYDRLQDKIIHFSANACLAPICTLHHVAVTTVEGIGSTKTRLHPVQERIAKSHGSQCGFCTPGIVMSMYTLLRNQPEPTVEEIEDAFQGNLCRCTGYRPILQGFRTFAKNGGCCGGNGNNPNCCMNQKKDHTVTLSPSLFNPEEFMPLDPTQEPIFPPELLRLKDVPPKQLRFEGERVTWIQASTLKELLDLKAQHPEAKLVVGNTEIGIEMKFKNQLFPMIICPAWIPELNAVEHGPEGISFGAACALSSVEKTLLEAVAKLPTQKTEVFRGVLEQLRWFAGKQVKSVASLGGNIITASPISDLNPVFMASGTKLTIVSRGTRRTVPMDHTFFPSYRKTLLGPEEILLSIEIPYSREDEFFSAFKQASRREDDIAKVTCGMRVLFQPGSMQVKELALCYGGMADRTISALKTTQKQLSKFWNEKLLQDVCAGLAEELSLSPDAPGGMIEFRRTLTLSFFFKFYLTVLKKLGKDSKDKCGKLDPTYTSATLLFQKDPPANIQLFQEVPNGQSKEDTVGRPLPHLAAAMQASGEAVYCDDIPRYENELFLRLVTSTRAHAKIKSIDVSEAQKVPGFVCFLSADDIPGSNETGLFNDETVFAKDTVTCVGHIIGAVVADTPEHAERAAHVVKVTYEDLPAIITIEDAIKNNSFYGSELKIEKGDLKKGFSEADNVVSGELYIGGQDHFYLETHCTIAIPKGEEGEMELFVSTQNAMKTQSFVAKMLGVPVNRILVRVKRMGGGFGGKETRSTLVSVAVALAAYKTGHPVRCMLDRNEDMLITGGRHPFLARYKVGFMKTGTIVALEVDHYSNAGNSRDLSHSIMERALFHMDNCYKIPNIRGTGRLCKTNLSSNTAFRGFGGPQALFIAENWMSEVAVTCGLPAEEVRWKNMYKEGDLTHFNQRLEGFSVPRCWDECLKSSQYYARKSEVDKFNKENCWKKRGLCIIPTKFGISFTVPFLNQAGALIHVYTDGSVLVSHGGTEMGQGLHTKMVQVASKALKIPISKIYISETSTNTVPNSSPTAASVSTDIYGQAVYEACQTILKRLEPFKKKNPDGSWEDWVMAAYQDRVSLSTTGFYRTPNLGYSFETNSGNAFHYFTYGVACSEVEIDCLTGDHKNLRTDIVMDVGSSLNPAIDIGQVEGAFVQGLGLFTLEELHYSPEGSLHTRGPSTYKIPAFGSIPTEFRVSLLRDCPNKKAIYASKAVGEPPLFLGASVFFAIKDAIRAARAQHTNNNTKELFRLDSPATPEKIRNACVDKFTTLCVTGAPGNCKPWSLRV
Test Readout: IC50 (µM)
Just the number in µM, nothing appended.

Prompt: What value of IC50 has been recorded for this entry: OCc1ccc(O)c(O)c1 [DHBA, 3,4-dihydroxybenzyl alcohol]
Completion: 76
